Numbers sourced from PubChem BioAssay (NCI).

system: HOP-92 NSCLC; test: NCI-60 one-dose screen, 48 h; conditions: 10 µM unless noted
Compounds without any hit were thinned out: in the full panel of roughly 83,000, 20% have a hit. Activity calls are given as the source filed them. Rule for the calls: active = growth percent below 10; inactive = the rest.
Please answer using one outcome listed in active, inactive

Take a look at these entries with their results.
| MOLECULE | SYSTEM NAME | CLASS |
| --- | --- | --- |
| CC1(C)N=C(N)N=C(N)N1c1ccc(CCC(=O)Nc2ccc(S(=O)(=O)F)cc2)cc1 | HOP-92 NSCLC | inactive |
| C=C[Se]CC(=O)/C=C/c1ccccc1 | HOP-92 NSCLC | inactive |
| CCCCOCCOP(=O)(OCCOCCCC)OCCOCCCC | HOP-92 NSCLC | inactive |
| Cc1cc(C(C)(C)C)ccc1O | HOP-92 NSCLC | inactive |
| CC[C@H](C)[C@H]1O[C@]2(C=C[C@@H]1C)C[C@@H]1C[C@@H](C/C=C(\C)[C@@H](O[C@H]3C[C@H](OC)[C@@H](O[C@H]4C[C@H](OC)[C@@H](NC)[C@H](C)O4)[C@H](C)O3)[C@@H](C)/C=C/C=C3\CO[C@@H]4[C@H](O)C(C)=C[C@@H](C(=O)O1)[C@]34O)O2 | HOP-92 NSCLC | active |
| CC1=CC(=Nc2ccc(N(CCCl)CCCl)cc2)C=C(C)C1=O | HOP-92 NSCLC | active |
| COc1ccc2c(c1)C1(C)CCN(C)CC(C1)C2O (stereo unspecified) | HOP-92 NSCLC | inactive |
| Oc1ccccc1C=NCCN=Cc1ccccc1O | HOP-92 NSCLC | inactive |

Query: recorded result category for N[C@@H](CCC(=O)CCl)C(=O)O in this test inactive

Query: recorded result category for COc1ccc2c(c1)c(-c1nc(-c3cn(C)c4ncccc34)cs1)cn2CCCCN1CCOCC1 in this test inactive

Query: recorded result category for C[C@]12C[C@H](c3ccoc3)OC(=O)[C@H]1CC[C@@]1(C)[C@@H]2[C@H]2C=C[C@]1(O)C(=O)O2 in this test inactive

Query: recorded result category for COC(=O)[C@@H](C)C[C@H](Cc1ccccc1)NC(=O)c1cccc([C@@H](C[C@H](C(C)C)N(C)C(=O)[C@@H](NC(=O)[C@H]2CCCCN2C)C2CC2)OC(C)=O)n1 in this test active

Query: recorded result category for CN1C2CCC1[C@@H](COC(=O)c1ccccc1)[C@@H](O)C2 (stereo partly specified) in this test inactive

Query: recorded result category for CCC1(CCSC#N)C(=O)NC(=O)NC1=O in this test inactive

Query: recorded result category for CCOC(=O)P(=O)(OCC)OCC in this test inactive

Query: recorded result category for CCN1C(=O)NC(=O)C(C)(N2C(=O)c3c(F)c(F)c(F)c(F)c3C2=O)C1=O (stereo unspecified) in this test active

Query: recorded result category for O=C(O)C(F)F in this test inactive

Query: recorded result category for C#Cc1cccc(Nc2nc(Cl)nc3cc(NC(=O)CF)ccc23)c1 in this test inactive

----------
tested on: TK-10 renal; assay: NCI-60 one-dose screen, 48 h; settings: 10 µM unless noted
The panel holds about 83,000 compounds, 20% with a hit somewhere; the sample as a whole holds those more often. Calls of active or inactive are those of the source. Rule for the calls: active = growth percent below 10; inactive = the rest.
Please answer using one outcome listed in YES (active), NO (inactive)

| COMPOUND | CLASS |
| --- | --- |
| c1ccc2c(c1)O[As](O[As]1Oc3ccccc3O1)O2 | NO |

Query: recorded result category for CC1=C(C)C(=O)O[C@@H]([C@](C)(O)[C@]2(O)CC[C@@]3(O)[C@@H]4C[C@H]5O[C@]56CC=CC(=O)[C@]6(C)[C@H]4CC[C@]23C)C1 in this test YES

Query: recorded result category for O=C(O)C(F)F in this test NO

Query: recorded result category for CCCN1C(=O)NC(=O)C(CC)(N2C(=O)c3c(F)c(F)c(F)c(F)c3C2=O)C1=O (stereo not given) in this test YES

Query: recorded result category for CN1CCN(c2ccc(Cl)cc2)CC1 in this test NO

Query: recorded result category for CC[C@H](C)[C@H](NC(=O)c1cnccn1)C(=O)N(C)[C@H](C[C@@H](OC(C)=O)c1nc(C(=O)N[C@@H](Cc2ccccc2)C[C@H](C)C(=O)OC)cs1)C(C)C in this test NO

Query: recorded result category for C[C@]12CC[C@H](O)C[C@@H]1CC[C@@H]1[C@@H]2CC[C@]2(C)OC(=O)CC[C@@H]12 in this test NO

Query: recorded result category for N#CC(N)c1ccccc1 (stereo not given) in this test NO

Query: recorded result category for CC12CCC3C4CCC(=O)C=C4CCC3C1CC1CC(=O)OC12 (stereo not given) in this test NO

Query: recorded result category for N#CCC(=O)c1ccccc1 in this test NO
